Target: T1, β-catenin (UniProt P35222 1-781)
T1 sequence (looked up): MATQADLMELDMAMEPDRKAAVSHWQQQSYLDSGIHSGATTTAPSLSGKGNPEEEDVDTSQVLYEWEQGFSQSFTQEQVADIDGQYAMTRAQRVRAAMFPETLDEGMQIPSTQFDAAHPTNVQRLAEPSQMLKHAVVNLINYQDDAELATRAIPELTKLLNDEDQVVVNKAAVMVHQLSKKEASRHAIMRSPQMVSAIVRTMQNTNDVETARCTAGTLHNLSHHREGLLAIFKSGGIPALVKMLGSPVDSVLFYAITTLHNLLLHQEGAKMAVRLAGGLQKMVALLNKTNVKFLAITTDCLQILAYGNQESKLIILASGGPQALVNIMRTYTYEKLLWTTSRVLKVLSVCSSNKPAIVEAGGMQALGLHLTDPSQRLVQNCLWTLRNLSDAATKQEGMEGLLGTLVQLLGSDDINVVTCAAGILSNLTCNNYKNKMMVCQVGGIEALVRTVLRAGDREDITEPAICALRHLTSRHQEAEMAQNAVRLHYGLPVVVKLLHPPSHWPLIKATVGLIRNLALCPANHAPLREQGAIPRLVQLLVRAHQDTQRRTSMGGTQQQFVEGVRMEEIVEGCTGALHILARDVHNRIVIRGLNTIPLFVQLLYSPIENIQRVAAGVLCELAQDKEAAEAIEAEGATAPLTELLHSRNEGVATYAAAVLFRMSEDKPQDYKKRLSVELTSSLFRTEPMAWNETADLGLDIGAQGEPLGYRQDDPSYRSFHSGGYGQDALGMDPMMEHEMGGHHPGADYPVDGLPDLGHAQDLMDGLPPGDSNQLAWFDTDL
Assay: fluorescence polarisation
Bridges are numbered along the chain shown (N, C = ends). Where no end group is shown, it is not given here. [ ]: non-standard residue; d: D form. dLys(N3) = [N-]=[N+]=NCCCC[C@@H](N)C(=O)O; Lys(N3) = [N-]=[N+]=NCCCC[C@H](N)C(=O)O; dPra = C#CC[C@@H](N)C(=O)O; Pra = C#CC[C@H](N)C(=O)O
In this section we review reported Ki values for a set of binders.
PROPERTY: Ki (nM)

- BINDER: "LSQEQ[Lys(N3)]EHR[dPra]RSLQTLRDIQRLLF (not fully specified (N-terminus, C-terminus)) [BCL9 peptide 19 (linkers closer to the N-terminus, linear)]"
  PROPERTY: "Ki"
  OUTPUT UNIT: "nM"
  OBSERVED RESULT: 1970
- BINDER: "LSQEQ[Lys(N3)]EHR[dPra]RSLQTLRDIQRLLF (triazole 6-10; not fully specified (N-terminus, C-terminus)) [triazole-stapled BCL9 peptide 20 (staple closer to the N-terminus)]"
  PROPERTY: "Ki"
  OUTPUT UNIT: "nM"
  OBSERVED RESULT: 410
- BINDER: "LSQEQLEHRERSL[Lys(N3)]TLR[dPra]IQRLLF (not fully specified (N-terminus, C-terminus)) [BCL9 peptide 21 (linkers closer to the C-terminus, linear)]"
  PROPERTY: "Ki"
  OUTPUT UNIT: "nM"
  OBSERVED RESULT: 2010
- BINDER: "LSQEQLEHRERSL[Pra]TLR[dLys(N3)]IQRLLF (not fully specified (N-terminus, C-terminus)) [BCL9 peptide 23 (reverse linkers towards the C-terminus, linear)]"
  PROPERTY: "Ki"
  OUTPUT UNIT: "nM"
  OBSERVED RESULT: 6660
- BINDER: "LSQEQLEHRERSL[Pra]TLR[dLys(N3)]IQRLLF (triazole 14-18; not fully specified (N-terminus, C-terminus)) [triazole-stapled BCL9 peptide 24 (reverse staple towards the C-terminus)]"
  PROPERTY: "Ki"
  OUTPUT UNIT: "nM"
  OBSERVED RESULT: 560
- BINDER: "LSQEQLEHRERSL[Lys(N3)]TLR[dPra]IQRLLF (triazole 14-18; not fully specified (N-terminus, C-terminus)) [triazole-stapled BCL9 peptide 22 (C-terminal stapled peptide)]"
  PROPERTY: "Ki"
  OUTPUT UNIT: "nM"
  OBSERVED RESULT: 260
